Non-standard residues stand in square brackets, D forms with d. Residues, ends and D or L forms follow the SMILES beside them. *: point of attachment. Sta = CC(C)C[C@H](N)[C@@H](O)CC(=O)O; Boc = CC(C)(C)OC(=O)*
System: porcine pepsin (Sus scrofa, UniProt P00791) | Read-out: IC50
Sequence (P00791 60-385): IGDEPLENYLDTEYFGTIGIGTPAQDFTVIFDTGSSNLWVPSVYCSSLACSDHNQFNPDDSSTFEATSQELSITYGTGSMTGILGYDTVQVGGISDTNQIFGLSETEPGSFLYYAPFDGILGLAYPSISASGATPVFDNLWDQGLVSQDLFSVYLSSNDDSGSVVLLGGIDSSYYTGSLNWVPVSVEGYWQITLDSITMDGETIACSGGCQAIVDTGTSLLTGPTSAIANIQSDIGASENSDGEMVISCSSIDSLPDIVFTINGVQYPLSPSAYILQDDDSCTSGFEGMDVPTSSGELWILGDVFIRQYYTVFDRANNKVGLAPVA
Give just the number in nM; leave the unit off.

molecule	unit_label	IC50
CC(C)C[C@H](NC(=O)[C@H](C)NC(=O)C[C@H](O)[C@H](CC(C)C)NC(=O)[C@H](Cc1c[nH]cn1)NC(=O)[C@H](Cc1ccccc1)NC(=O)OC(C)(C)C)[C@@H](O)CC(=O)O [SR 41492, Boc--Phe--His--Sta--Ala--Sta--OH] (Boc-FH[Sta]A[Sta]-OH)	nM	550

Attention now shifts to the item below.
Short answer on porcine pepsin (Sus scrofa, UniProt P00791) for COC(=O)C[C@H](O)[C@H](CC(C)C)NC(=O)[C@H](C)NC(=O)C[C@H](O)[C@H](CC(C)C)NC(=O)[C@@H](NC(=O)[C@@H](Cc1ccccc1)NC(=O)OC(C)(C)C)C(C)C [SR 41377, Boc--(D)Phe--Val--Sta--Ala--Sta--OCH3] (Boc-[dF]V[Sta]A[Sta]-OMe) , IC50: 47

* * *

Non-standard residues stand in square brackets, D forms with d. Residues, ends and D or L forms follow the SMILES beside them. *: point of attachment. Sta = CC(C)C[C@H](N)[C@@H](O)CC(=O)O; Cbz = O=C(OCc1ccccc1)*; Boc = CC(C)(C)OC(=O)*
System: UniProt:P80209 | Read-out: pIC50
Sequence (P80209 45-390): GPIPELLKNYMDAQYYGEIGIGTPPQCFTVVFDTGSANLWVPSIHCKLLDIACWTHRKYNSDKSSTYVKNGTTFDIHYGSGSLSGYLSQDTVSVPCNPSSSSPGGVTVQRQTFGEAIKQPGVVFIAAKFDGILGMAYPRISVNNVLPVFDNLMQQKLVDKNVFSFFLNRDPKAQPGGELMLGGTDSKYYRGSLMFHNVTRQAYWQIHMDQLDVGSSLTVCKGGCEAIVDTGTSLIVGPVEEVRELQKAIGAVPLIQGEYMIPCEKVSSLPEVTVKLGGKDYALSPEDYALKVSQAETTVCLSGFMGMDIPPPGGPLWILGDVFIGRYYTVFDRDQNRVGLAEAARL
// returns pIC50 (minus log10 of molar concentration), number only

compound	numeric_result
COC(=O)C[C@H](O)[C@H](CC(C)C)NC(=O)[C@H](C)NC(=O)C[C@H](O)[C@H](CC(C)C)NC(=O)[C@@H](NC(=O)[C@H](Cc1ccccc1)NC(=O)OCc1ccccc1)C(C)C [SR 41405, Z--Phe--Val--Sta--Ala--Sta--OMe] (Cbz-FV[Sta]A[Sta]-OMe)	7.02
COC(=O)C[C@H](O)[C@H](CC(C)C)NC(=O)[C@H](C)NC(=O)C[C@H](O)[C@H](CC(C)C)NC(=O)[C@H](Cc1c[nH]cn1)NC(=O)[C@H](Cc1c[nH]c2ccccc12)NC(=O)OC(C)(C)C [SR 41619, Boc--Trp--His--Sta--Ala--Sta--OMe] (Boc-WH[Sta]A[Sta]-OMe)	6.12

Attention now shifts to the item below.
The compound identified as COC(=O)C[C@H](O)[C@H](CC(C)C)NC(=O)[C@H](C)NC(=O)C[C@H](O)[C@H](CC(C)C)NC(=O)[C@H](Cc1ccccc1)NC(=O)[C@H](Cc1ccccc1)NC(=O)OC(C)(C)C [SR 41331, Boc--Phe--Phe--Sta--Ala--Sta--OMe] (Boc-FF[Sta]A[Sta]-OMe) registered its pIC50 at 6.74

* * *

# IC50 per record follows
# target_entity: human plasma renin activity (Homo sapiens)
# Construct: the human plasma contain and the substrate: angiotensinogen, and the enzyme: renin; from tissue; host or cells: pool of human plasma
# Sequence (P00797 67-406): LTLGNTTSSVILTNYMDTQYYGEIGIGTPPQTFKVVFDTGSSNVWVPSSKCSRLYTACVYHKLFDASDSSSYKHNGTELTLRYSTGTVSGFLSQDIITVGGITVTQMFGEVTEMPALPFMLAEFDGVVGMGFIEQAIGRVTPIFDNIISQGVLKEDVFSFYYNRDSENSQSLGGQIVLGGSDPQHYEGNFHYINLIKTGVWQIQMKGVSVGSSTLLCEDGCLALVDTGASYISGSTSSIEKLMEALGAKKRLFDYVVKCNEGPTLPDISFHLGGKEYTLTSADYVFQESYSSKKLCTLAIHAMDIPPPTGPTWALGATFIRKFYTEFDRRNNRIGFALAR
# test_summary: Inhibition of the human plasma renin activity (P.R.A.)
# Assay type: biochemical
# experimental_context: pH 7.4, phosphate buffer, incubation 60 minutes, 37° C., pool of human plasma; read-out: INHIBITION OF HUMAN P.R.A. (IC50) pH 7.4
Non-standard residues stand in square brackets, D forms with d. Residues, ends and D or L forms follow the SMILES beside them. *: point of attachment. Sta = CC(C)C[C@H](N)[C@@H](O)CC(=O)O; Isovaleryl = CC(C)CC(=O)*; Cbz = O=C(OCc1ccccc1)*
Give just the number in nM; leave the unit off.

molecule	target_entity	IC50 [nM]
COC(=O)C[C@H](O)[C@H](CC(C)C)NC(=O)[C@H](C)NC(=O)C[C@H](O)[C@H](CC(C)C)NC(=O)[C@@H](NC(=O)[C@H](Cc1c[nH]c2ccccc12)NC(=O)OCc1ccccc1)C(C)C [SR 41485, Z--Trp--Val--Sta--Ala--Sta--OMe] (Cbz-WV[Sta]A[Sta]-OMe)	human plasma renin activity (Homo sapiens)	150

Attention now shifts to the item below.
The molecule identified as COC(=O)C[C@H](O)[C@H](CC(C)C)NC(=O)[C@H](C)NC(=O)C[C@H](O)[C@H](CC(C)C)NC(=O)[C@H](Cc1ccccc1)NC(=O)[C@H](Cc1ccccc1)NC(=O)CC(C)C [SR 41764, iVa--Phe--Phe--Sta--Ala--Sta--OMe] (Isovaleryl-FF[Sta]A[Sta]-OMe) registered its IC50 at 310
